Catalogue of molecules with associated Degraded
# assay_method_text: Chemical stability study: vitamin contents on storage at 20 °C/ambient RH
# Assay type: physicochemical
# experimental_context: Example 4 syrup, 18 months at 20 °C/ambient RH; '+' = increase

>  <molecule>
CC1=C(/C=C/C(C)=C/C=C/C(C)=C/C=C/C=C(C)/C=C/C=C(C)/C=C/C2=C(C)CCCC2(C)C)C(C)(C)CCC1 [Betacaroten]

>  <Degraded>
+6.3%

$$$$
>  <molecule>
Cc1ncc(CO)c(CO)c1O [Pyridoxine]

>  <Degraded>
+1.1%

$$$$

Given the molecule C=C1CC[C@H](O)C/C1=C/C=C1\CCC[C@]2(C)[C@@H]([C@H](C)CCCC(C)C)CC[C@@H]12 [Cholecalciferol] , what is its reported Degraded?
+2.5%

====

# assay_method_text: Chemical stability study: vitamin contents on storage at 20 °C/ambient RH
# Format: physicochemical
# experimental_context: Example 4 vitamin and mineral syrup, batch 2, time 0
parameter_measured: Initial content (IU/5 ml)
Report only the number, with the unit IU/5 ml understood.

Solved entries:
>  <smiles_representation>
Cc1c(C)c2c(c(C)c1O)CC[C@@](C)(CCC[C@H](C)CCC[C@H](C)CCCC(C)C)O2

>  <units>
IU/5 ml

>  <Initial content>
12.4

$$$$
>  <smiles_representation>
CC1=C(/C=C/C(C)=C/C=C/C(C)=C/C=C/C=C(C)/C=C/C=C(C)/C=C/C2=C(C)CCCC2(C)C)C(C)(C)CCC1

>  <units>
IU/5 ml

>  <Initial content>
2148

$$$$

// switching to the query compound
Need Initial content of `C=C1CC[C@H](O)C/C1=C/C=C1\CCC[C@]2(C)[C@@H]([C@H](C)CCCC(C)C)CC[C@@H]12` , thanks.
494

====

# assay_method_text: Chemical stability study: vitamin contents on storage at 20 °C/ambient RH
# Type: physicochemical
# experimental_context: Example 1 syrup, production batch 1, time 0
Attribute: Initial vitamin content
Write it as a number; the unit μg/10 ml goes unstated.

Field: example entries. Status: answers known.
>  <compound>
Nc1nc2ncc(CNc3ccc(C(=O)N[C@@H](CCC(=O)O)C(=O)O)cc3)nc2c(=O)[nH]1 [Folic acid]

>  <units>
μg/10 ml

>  <Initial vitamin content>
92.1

$$$$
>  <compound>
CC1=C(/C=C/C(C)=C/C=C/C(C)=C/CO)C(C)(C)CCC1 [Retinol]

>  <units>
μg/10 ml

>  <Initial vitamin content>
623

$$$$

Switching to the query record.
Query (compound): C=C1CC[C@H](O)C/C1=C/C=C1\CCC[C@]2(C)[C@@H]([C@H](C)CCCC(C)C)CC[C@@H]12 [Cholecalciferol] ; field requested: Initial vitamin content
8.0

====

Catalogue of molecules with associated Initial content
# assay_method_text: Chemical stability study: vitamin contents on storage at 20 °C/ambient RH
# Type: physicochemical
# experimental_context: Example 4 vitamin and mineral syrup, batch 1, time 0
Numeric answer only, unit IU/5 ml assumed.

Consider the reported Initial content for these molecules:
>  <smiles_representation>
CC1=C(/C=C/C(C)=C/C=C/C(C)=C/C=C/C=C(C)/C=C/C=C(C)/C=C/C2=C(C)CCCC2(C)C)C(C)(C)CCC1

>  <parameter_measured>
Initial content

>  <observed_measurement>
2172

$$$$
>  <smiles_representation>
C=C1CC[C@H](O)C/C1=C/C=C1\CCC[C@]2(C)[C@@H]([C@H](C)CCCC(C)C)CC[C@@H]12

>  <parameter_measured>
Initial content

>  <observed_measurement>
502

$$$$

Kindly review the next molecule as well.
So what's the measured Initial content for this one? `Cc1c(C)c2c(c(C)c1O)CC[C@@](C)(CCC[C@H](C)CCC[C@H](C)CCCC(C)C)O2`
12.5
